test system: SK-MEL-5 melanoma; assay: NCI-60 one-dose screen, 48 h (100 = growth as untreated, 0 = no growth, -100 = all killed); details: 10 µM unless noted
Compounds without any hit were thinned out: in the full panel of roughly 83,000, 20% have a hit.
growth class ranges: lower level = under 80%, middle level = from 80% up to 90%, upper level = 90% and over

Look over these answered cases.
Cc1cc2nc(-c3c(-c4ccc(F)cc4)nc4sccn34)[nH]c2cc1C: middle level
CCOC(=O)c1c(C)nn(CC(O)c2ccccc2)c1NC(=O)Nc1cccc(F)c1 (configuration not stated): upper level
COc1cc(-c2nc3ccc(C)cc3[nH]2)ccc1OCC(=O)N=Nc1c(O)[nH]c2ccc(Cl)cc12: lower level
CN(C)c1ccc(/C=C2/C=C(c3ccccc3)OC2=O)cc1: middle level
CN1CCN(Cc2ccc(NC(=O)c3cncc(C#Cc4cncc5ncccc45)c3)cc2C(F)(F)F)CC1: lower level

Given COc1cccc(/C=C/C(=O)c2cc3c(N)c(C(=O)Nc4cccc(Cl)c4C)sc3nc2C)c1 , name the class its growth places it in.
lower level

Given COc1ccc(C2=CN3CC=CCC3CC2=O)cc1 (configuration not stated) , name the class its growth places it in.
upper level

====

tested on: UO-31 renal; assay: NCI-60 one-dose screen, 48 h (100 = growth as untreated, 0 = no growth, -100 = all killed); conditions: 10 µM unless noted
Compounds without any hit were thinned out: in the full panel of roughly 83,000, 20% have a hit. The source made the active and inactive calls. Rule for the calls: active = growth percent below 10; inactive = the rest.
Give growth for every item shown.

For orientation, consider the following solved cases.
O=C(CN1CCN(c2cc3c(cc2F)c(=O)c(C(=O)O)cn3C2CC2)CC1)N/N=C/c1ccncc1: 90.6% (inactive)
Cc1ccc(S(=O)(=O)n2cc(C3C(Cl)C(=O)N3c3ccc(N4CCOCC4=O)cc3)c3ccccc32)cc1 (stereo not drawn): 37.6% (inactive)
CN1CCN(Cc2ccc(NC(=O)c3cncc(C#Cc4cnn5ccccc45)c3)cc2C(F)(F)F)CC1: -9.3% (active)

Please supply growth for each of the following items, keeping them in order.
1. CC/C=C\C/C=C/C=C1/C(=O)C=C[C@@H]1C/C=C\CCCC(=O)OC
2. O=C1NC(=C(Cl)Cl)/C(=N/S(=O)(=O)NCCc2c[nH]c3ccccc23)N1

["28.2% (inactive)", "71.6% (inactive)"]

Please supply growth for each of the following items, keeping them in order.
1. CC(C)=CC(=O)N[C@@H]1CC2CCC3C(CC[C@@]4(C)C3CC[C@@H]4C(C)N(C)C)[C@@]2(C)C[C@@H]1O (stereo partly drawn)
2. COc1cc(-c2nc(NC(C)=O)sc2-c2ccnc(NCCNS(=O)(=O)c3ccccc3)n2)ccc1Cl
3. CC1(C)CC[C@]2(C(=O)N3CCOCC3)CC[C@]3(C)C(=CC[C@@H]4[C@@]5(C)C/C(=C/c6ccncc6)C(=O)C(C)(C)[C@@H]5CC[C@]43C)[C@@H]2C1

["10.1% (inactive)", "63.3% (inactive)", "11% (inactive)"]

====

system: SK-MEL-28 melanoma; assay: NCI-60 one-dose screen, 48 h (100 = growth as untreated, 0 = no growth, -100 = all killed); conditions: 10 µM unless noted
Compounds without any hit were thinned out: in the full panel of roughly 83,000, 20% have a hit.
OBSERVABLE: growth (%)
Answers are plain numbers, in %.

For orientation, consider the following solved cases.
C#CC#CC#CC#CC#CC#CC#CC#CCC1OCC(COC(=O)O[C@@H](C(=O)O[C@H]2C[C@@]3(O)[C@@H](OC(=O)c4ccccc4)[C@@H]4[C@]5(OC(C)=O)CO[C@@H]5C[C@H](O)[C@@]4(C)C(=O)[C@H](OC(C)=O)C(=C2C)C3(C)C)[C@@H](NC(=O)c2ccccc2)c2ccccc2)O1 (stereo partly drawn): 59.2
CCCCCCCCn1ccc2cc(NC(=O)Cn3cc(CN4CCCCCC4)nn3)ccc21: -86.1
CC(C)CCC[C@@H](C)C1CCC2C3CCC4=C/C(=N/OCCN(C)C)CC[C@]4(C)C3CC[C@@]21C (stereo partly drawn): 101
Cn1cc(-c2nonc2-c2c[nH]c3ccccc23)c2ccccc21: 41.6
CN1CCN(Cc2cc(NC(=O)c3cccc(C#Cc4cccc5[nH]nc(N)c45)c3)cc(C(F)(F)F)c2)CC1: -60.5
O=C1/C(=C/c2cccc([N+](=O)[O-])c2)COc2ccc(O)cc21: 82.7
C#CCn1cnc2c(Nc3cccc(NC(=O)CCl)c3)ncnc21: 39.5
C/C(=C(\c1ccc(OCCN2CCCCCC2)cc1)c1ccc(OC(=O)Cc2ccccc2)cc1)c1ccc(Cl)cc1: -27.3

Please supply growth for each of the following items, keeping them in order.
1. N#CC(C#N)N=Nc1ccc(Cl)cc1Cl
2. O=C(CN1CCN(c2cc3c(cc2F)c(=O)c(C(=O)O)cn3C2CC2)CC1)N/N=C/c1ccncc1
3. COc1ccc(C/C(C)=C(/c2ccc(OCCN3CCCCCC3)cc2)c2ccc(OC(=O)NCc3ccccc3)cc2)cc1
4. Cc1nn(-c2ccccc2)c(N2CCCCC2)c1/C=N/NC(=O)Cn1c(=O)sc2ccccc21
5. COc1cccc(OC)c1Oc1c(-c2nc3ccccc3s2)c(C)nn1-c1ccccc1

[70.3, 106, 98.3, 114, 106]

Please supply growth for each of the following items, keeping them in order.
1. CCCCSCC(=O)c1ccccc1
2. COc1ccc2c(c1)c(-c1nonc1-c1c[nH]c3ccc(Br)cc13)cn2C
3. COc1cccc(C(=O)OCC(O)C(=O)NC23CC4CC(CC(C4)C2)C3)c1 (stereo not drawn)
4. CS(=O)(=O)Nc1cc(-c2ccc3ncnc(Nc4ccc5c(cnn5Cc5cccnc5)c4)c3c2)cnc1Cl
5. CCCNc1nc2ccccc2c2c(=O)c3cccc(Cl)c3sc12

1. 108
2. 61
3. 104
4. 29.4
5. 115
